- Test system: LXFL 529 NSCLC
- Experiment description: NCI tumour cell line growth inhibition, 48 h
Recorded TGI by entry

Query string: Request the reported TGI associated with `O=C(CC1=Nc2nnc(-c3nnc4n3C(=O)C(CC(=O)C3CC3)=N4)n2C1=O)C1CC1`
Result string: > 100 µM

Query string: Request the reported TGI associated with `CCOc1ccccc1NC(=O)C1=C(C)NC(C)=C(C(=O)Nc2ccccc2OCC)C1c1ccc([N+](=O)[O-])cc1`
Result string: > 100 µM

Query string: Request the reported TGI associated with `C/C(CC(=O)Nc1cccc([N+](=O)[O-])c1)=N\NC(=O)C[n+]1ccccc1`
Result string: > 100 µM
